- assay system: TtCBH7 (Thermothelomyces thermophilus)
- Sequence (G2Q665 entry or part of it): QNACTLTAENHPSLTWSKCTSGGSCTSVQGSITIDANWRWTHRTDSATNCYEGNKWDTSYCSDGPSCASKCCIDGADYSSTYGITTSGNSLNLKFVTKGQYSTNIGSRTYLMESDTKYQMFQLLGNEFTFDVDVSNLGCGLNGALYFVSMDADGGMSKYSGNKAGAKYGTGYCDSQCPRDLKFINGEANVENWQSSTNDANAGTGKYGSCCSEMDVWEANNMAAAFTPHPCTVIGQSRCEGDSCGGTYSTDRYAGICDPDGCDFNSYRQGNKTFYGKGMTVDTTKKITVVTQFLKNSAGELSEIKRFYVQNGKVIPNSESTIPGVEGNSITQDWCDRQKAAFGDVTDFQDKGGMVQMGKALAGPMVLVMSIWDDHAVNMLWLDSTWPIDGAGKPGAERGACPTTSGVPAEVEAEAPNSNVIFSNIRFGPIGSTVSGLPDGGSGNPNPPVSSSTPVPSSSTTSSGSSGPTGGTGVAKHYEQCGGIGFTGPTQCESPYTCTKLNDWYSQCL
- measurement notes: Kinetics and inhibition of TtCBH7 by mono/oligosaccharides with MUG2 as substrate (Lineweaver-Burk)
- Type: biochemical, Thermothelomyces thermophila
- assay setup: TtCBH7, substrate MUG2, inhibitor 5 mM (Km app)
Label yes (1) when Km/Km^app is at or above 1 µM; otherwise label no (0).

Check out these entries, answers already filled in.
molecule	category
OC1OC[C@@H](O[C@@H]2OC[C@@H](O[C@@H]3OC[C@@H](O)[C@H](O)[C@H]3O)[C@H](O)[C@H]2O)[C@H](O)[C@H]1O (some centres unmarked)	no (0)
OC[C@H]1O[C@@H](O[C@H]2[C@H](O)[C@H](O)C(O)O[C@@H]2CO)[C@@H](O)[C@@H](O)[C@@H]1O (some centres unmarked)	no (0)

Input: Km/Km^app >= 1 µM for OC1OC[C@@H](O[C@@H]2OC[C@@H](O)[C@H](O)[C@H]2O)[C@H](O)[C@H]1O (some centres unmarked) ?
Output: no (0)

Input: Reported Km/Km^app reaches at least 1 µM for O=C[C@H](O)[C@@H](O)[C@H](O[C@@H]1O[C@H](CO)[C@@H](O)[C@H](O)[C@H]1O)[C@H](O)CO ?
Output: yes (1)

---

- System: TtCBH6
- measurement notes: Kinetics and inhibition of TtCBH6 by mono/oligosaccharides with MUG2 as substrate (Lineweaver-Burk)
- Type: biochemical, Thermothelomyces thermophila
- assay setup: TtCBH6, substrate MUG2, inhibitor 5 mM (Km app)
# key: entry, value: Km/Km^app
In your response, the unit should come after the numeric value.

Please review the entries below; each comes with its answer.
compound	assay system	readout label	result value
OC1OC[C@@H](O[C@@H]2OC[C@@H](O[C@@H]3OC[C@@H](O)[C@H](O)[C@H]3O)[C@H](O)[C@H]2O)[C@H](O)[C@H]1O (some centres unmarked)	TtCBH6	Km/Km^app	0.42 µM
O=C[C@H](O)[C@@H](O)[C@H](O[C@@H]1O[C@H](CO)[C@@H](O)[C@H](O)[C@H]1O)[C@H](O)CO	TtCBH6	Km/Km^app	0.40 µM
OC[C@H]1O[C@@H](O[C@H]2[C@H](O)[C@H](O)C(O)O[C@@H]2CO)[C@@H](O)[C@@H](O)[C@@H]1O (some centres unmarked)	TtCBH6	Km/Km^app	0.38 µM
OC[C@H]1OC(O)[C@H](O)[C@@H](O)[C@@H]1O (some centres unmarked)	TtCBH6	Km/Km^app	0.39 µM

Now for another entry.
Input: Give its Km/Km^app value. Item: OC1OC[C@@H](O[C@@H]2OC[C@@H](O)[C@H](O)[C@H]2O)[C@H](O)[C@H]1O (some centres unmarked)
Output: 0.44 µM

---

- Test system: TtCBH6
- measurement notes: Kinetics and inhibition of TtCBH6 by mono/oligosaccharides with MUG2 as substrate (Lineweaver-Burk)
- Type: biochemical, Thermothelomyces thermophila
- assay setup: TtCBH6, substrate MUG2, inhibitor 10 mM (Km app)
readout label: Km/Km^app

// worked examples, Km/Km^app included
compound	result value
OC1OC[C@@H](O[C@@H]2OC[C@@H](O)[C@H](O)[C@H]2O)[C@H](O)[C@H]1O (some centres unmarked)	0.41 µM
OC[C@H]1OC(O)[C@H](O)[C@@H](O)[C@@H]1O (some centres unmarked)	0.41 µM
O=C[C@H](O)[C@@H](O)[C@H](O[C@@H]1O[C@H](CO)[C@@H](O)[C@H](O)[C@H]1O)[C@H](O)CO	0.45 µM

Input: What value of measured Km/Km^app is listed for OC[C@H]1O[C@@H](O[C@H]2[C@H](O)[C@H](O)C(O)O[C@@H]2CO)[C@@H](O)[C@@H](O)[C@@H]1O (some centres unmarked) ?
Output: 0.35 µM

Input: Given OC1OC[C@@H](O[C@@H]2OC[C@@H](O[C@@H]3OC[C@@H](O)[C@H](O)[C@H]3O)[C@H](O)[C@H]2O)[C@H](O)[C@H]1O (some centres unmarked) , state its recorded Km/Km^app.
Output: 0.46 µM

Hello, the source for this data is paper PMC5917092, in case you need it.
